Molecular target: human TLR9 (Homo sapiens)
Sequence (Q9NR96 26-1032): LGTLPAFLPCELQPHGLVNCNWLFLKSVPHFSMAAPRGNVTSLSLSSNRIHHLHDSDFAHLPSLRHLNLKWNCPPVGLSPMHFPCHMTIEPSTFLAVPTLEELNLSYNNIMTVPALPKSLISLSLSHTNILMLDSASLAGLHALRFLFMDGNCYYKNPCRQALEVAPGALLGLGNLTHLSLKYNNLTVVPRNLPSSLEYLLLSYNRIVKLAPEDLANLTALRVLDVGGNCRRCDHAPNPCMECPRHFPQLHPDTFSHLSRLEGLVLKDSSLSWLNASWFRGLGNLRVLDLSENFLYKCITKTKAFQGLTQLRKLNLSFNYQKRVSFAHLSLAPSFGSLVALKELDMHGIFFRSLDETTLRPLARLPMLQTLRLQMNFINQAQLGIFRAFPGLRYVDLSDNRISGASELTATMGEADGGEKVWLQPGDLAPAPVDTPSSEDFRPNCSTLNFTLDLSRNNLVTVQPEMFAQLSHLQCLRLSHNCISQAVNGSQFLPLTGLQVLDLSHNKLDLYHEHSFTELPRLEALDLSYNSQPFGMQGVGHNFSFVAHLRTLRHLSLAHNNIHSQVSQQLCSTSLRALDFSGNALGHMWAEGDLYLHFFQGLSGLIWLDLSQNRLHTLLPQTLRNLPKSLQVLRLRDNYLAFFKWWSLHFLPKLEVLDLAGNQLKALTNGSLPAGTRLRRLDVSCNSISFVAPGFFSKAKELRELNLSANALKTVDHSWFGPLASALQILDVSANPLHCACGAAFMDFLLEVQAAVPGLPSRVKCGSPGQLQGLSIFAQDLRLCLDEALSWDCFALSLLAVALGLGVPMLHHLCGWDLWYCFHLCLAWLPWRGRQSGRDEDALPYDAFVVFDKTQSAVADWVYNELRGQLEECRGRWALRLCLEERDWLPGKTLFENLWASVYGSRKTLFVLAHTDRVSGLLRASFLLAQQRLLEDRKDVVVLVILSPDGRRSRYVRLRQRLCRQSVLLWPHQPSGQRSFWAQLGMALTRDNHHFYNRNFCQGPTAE
Assay: TLR7/8/9 Inhibition Reporter Assays (TLR9)
Conditions: HEK-Blue cells overexpressing human TLR9, SEAP reporter, stimulated with TLR9 ligand ODN2006
OBSERVABLE: IC50 (nM)

>  <SMILES REPRESENTATION>
CC(C)CN1CC2(C1)CN(c1ccc(-c3cc4c(cn3)nc(-c3ccc(S(C)(=O)=O)cc3)n4C3CC3)cc1)C2

>  <IC50 [nM]>
440

$$$$
>  <SMILES REPRESENTATION>
CC(C)N1CC2(CN(c3ccc(-c4cc5c(cn4)nc(-c4ccc(S(C)(=O)=O)cc4)n5C4CC4)cc3)C2)C1

>  <IC50 [nM]>
420

$$$$
>  <SMILES REPRESENTATION>
COc1ccc(-c2nc3c(C)nc(-c4ccc(N5CCC6(CC5)CN(CC(C)C)C6)cc4)cc3n2C)cc1OC

>  <IC50 [nM]>
97

$$$$

P: CC(C)CN1C[C@@H]2CN(c3ccc(-c4cc5c(cn4)nc(-c4ccc(S(C)(=O)=O)cc4)n5C4CC4)cc3)C[C@@H]2C1
Q: CS(=O)(=O)c1ccc(-c2nc3cnc(-c4ccc(N5CCN(CCCN6CCOCC6)CC5)cc4)cc3n2C2CC2)cc1
Between the two listed entries P and Q , which has its IC50 at the higher number? Respond with the label that goes with your answer.
P

* * *

Target: human TLR7 (Homo sapiens)
Sequence (Q9NYK1 27-1049): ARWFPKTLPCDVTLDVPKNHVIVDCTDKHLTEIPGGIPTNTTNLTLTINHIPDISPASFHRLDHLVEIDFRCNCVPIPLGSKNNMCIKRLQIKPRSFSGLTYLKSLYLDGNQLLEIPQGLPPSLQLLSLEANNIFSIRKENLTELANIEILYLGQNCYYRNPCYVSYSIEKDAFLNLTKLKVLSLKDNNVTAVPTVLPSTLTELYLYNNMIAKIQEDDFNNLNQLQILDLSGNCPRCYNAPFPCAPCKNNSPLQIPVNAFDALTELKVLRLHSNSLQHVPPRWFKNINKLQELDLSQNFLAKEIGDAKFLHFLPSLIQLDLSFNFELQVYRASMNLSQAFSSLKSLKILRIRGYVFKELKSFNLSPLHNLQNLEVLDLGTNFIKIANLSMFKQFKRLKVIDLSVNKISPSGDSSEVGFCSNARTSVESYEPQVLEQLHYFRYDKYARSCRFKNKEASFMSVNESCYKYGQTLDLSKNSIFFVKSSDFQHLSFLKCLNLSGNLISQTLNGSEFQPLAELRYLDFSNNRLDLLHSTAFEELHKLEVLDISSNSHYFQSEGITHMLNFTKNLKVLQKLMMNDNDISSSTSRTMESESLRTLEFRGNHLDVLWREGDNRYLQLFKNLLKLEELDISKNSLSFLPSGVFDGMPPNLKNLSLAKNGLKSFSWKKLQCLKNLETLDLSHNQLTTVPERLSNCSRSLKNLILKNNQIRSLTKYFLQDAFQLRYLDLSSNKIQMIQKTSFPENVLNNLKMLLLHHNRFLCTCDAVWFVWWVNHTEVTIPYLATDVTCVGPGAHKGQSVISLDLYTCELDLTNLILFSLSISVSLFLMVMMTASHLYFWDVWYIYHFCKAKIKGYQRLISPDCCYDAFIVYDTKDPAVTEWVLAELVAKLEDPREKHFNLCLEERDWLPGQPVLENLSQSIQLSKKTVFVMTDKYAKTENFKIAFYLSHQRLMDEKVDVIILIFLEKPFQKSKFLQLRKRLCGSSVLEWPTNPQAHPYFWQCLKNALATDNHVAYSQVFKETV
Test: TLR7/8/9 Inhibition Reporter Assays (TLR7)
Conditions: HEK-Blue cells overexpressing human TLR7, SEAP reporter, stimulated with TLR7 ligand gardiquimod
Procedure: HEK-Blue™-cells (Invivogen) overexpressing human TLR7, TLR8 or TLR9 receptors were used for screening inhibitors of these receptors using an inducible SEAP (secreted embryonic alkaline phosphatase) reporter gene under the control of the IFN-β minimal promoter fused to five NF-κB and AP-1-binding sites. […] The percent inhibition is determined as the % reduction in the HEK-Blue signal present in wells treated with agonist plus DMSO alone compared to wells treated with a known inhibitor.
pIC50: −log10 of the molar value.
OBSERVABLE: pIC50

Some entries whose results are on file:
>  <SMILES REPRESENTATION>
Cc1nc(-c2ccc(N3CCN(C4CCC4)CC3)cc2)cc2c1nc(-c1ccc(S(C)(=O)=O)cc1)n2C

>  <TARGET DESC>
human TLR7 (Homo sapiens)

>  <pIC50>
5.52

$$$$
>  <SMILES REPRESENTATION>
CC(C)N1CC2(CCN(c3ccc(-c4cc5c(cn4)nc(-c4ccc(S(C)(=O)=O)cc4)n5C)cc3)C2)C1

>  <TARGET DESC>
human TLR7 (Homo sapiens)

>  <pIC50>
5.55

$$$$
>  <SMILES REPRESENTATION>
Cc1nc(-c2ccc(C3CCN(C(C)C)CC3)cc2)cc2c1nc(-c1ccc(S(C)(=O)=O)cc1)n2C

>  <TARGET DESC>
human TLR7 (Homo sapiens)

>  <pIC50>
4.92

$$$$
>  <SMILES REPRESENTATION>
Cc1nc(-c2ccc(N3CCN(CC4CC4)CC3)cc2)cc2c1nc(-c1ccc(S(C)(=O)=O)cc1)n2C

>  <TARGET DESC>
human TLR7 (Homo sapiens)

>  <pIC50>
5.54

$$$$
>  <SMILES REPRESENTATION>
COc1ccc(-c2nc3cnc(-c4ccc(N5C[C@@H]6CN(C(C)C)C[C@@H]6C5)cc4)cc3n2C2CC2)cc1OC

>  <TARGET DESC>
human TLR7 (Homo sapiens)

>  <pIC50>
5.52

$$$$

A: Cc1nc(-c2ccc(CN3CCN(C(C)C)CC3)cc2)cc2c1nc(-c1ccc(S(C)(=O)=O)cc1)n2C
B: CC(C)N1CCC(N2CCC(c3cc4c(nc(-c5ccc(S(C)(=O)=O)cc5)n4C)c(C(F)(F)F)n3)CC2)CC1
// pick larger pIC50 from pair: A vs B Field: selected label. Fill in the label of the entry you choose.
B

* * *

molecular target: human TLR8 (Homo sapiens, UniProt Q9NR97); assay: TLR7/8/9 Inhibition Reporter Assays (TLR8); conditions: HEK-Blue cells overexpressing human TLR8, SEAP reporter, stimulated with TLR8 ligand R848
Sequence (Q9NR97 27-1041): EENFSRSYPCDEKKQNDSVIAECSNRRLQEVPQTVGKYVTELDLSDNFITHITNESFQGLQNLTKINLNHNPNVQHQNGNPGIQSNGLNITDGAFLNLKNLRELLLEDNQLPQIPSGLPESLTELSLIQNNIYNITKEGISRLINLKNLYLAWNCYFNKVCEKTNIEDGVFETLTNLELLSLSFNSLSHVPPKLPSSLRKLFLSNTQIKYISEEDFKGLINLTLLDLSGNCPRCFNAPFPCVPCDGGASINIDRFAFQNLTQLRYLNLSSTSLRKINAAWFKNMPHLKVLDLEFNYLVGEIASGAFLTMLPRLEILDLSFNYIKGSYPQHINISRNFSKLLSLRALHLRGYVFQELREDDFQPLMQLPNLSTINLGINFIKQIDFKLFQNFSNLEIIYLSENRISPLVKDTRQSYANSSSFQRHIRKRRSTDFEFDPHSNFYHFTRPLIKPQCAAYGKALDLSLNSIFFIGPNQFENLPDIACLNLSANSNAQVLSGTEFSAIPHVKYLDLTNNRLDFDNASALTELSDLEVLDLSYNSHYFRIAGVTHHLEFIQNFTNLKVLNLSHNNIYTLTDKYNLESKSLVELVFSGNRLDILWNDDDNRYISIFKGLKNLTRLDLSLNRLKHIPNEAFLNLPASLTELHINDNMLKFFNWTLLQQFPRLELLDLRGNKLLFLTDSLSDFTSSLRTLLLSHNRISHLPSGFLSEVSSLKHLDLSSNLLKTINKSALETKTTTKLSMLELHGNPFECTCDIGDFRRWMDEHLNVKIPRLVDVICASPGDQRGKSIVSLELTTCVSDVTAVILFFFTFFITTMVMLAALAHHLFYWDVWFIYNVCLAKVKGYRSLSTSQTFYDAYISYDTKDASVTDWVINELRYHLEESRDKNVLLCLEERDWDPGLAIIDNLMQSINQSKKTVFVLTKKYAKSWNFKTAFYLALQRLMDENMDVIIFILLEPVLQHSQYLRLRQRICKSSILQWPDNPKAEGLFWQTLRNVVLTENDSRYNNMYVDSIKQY
Listing of entries alongside the reported IC50.

Past entries and their recorded results:
>  <SMILES REPRESENTATION>
Cc1nc(-c2ccc(N3CCC(N4CCCC4)CC3)cc2)c(F)c2c1nc(-c1ccc(S(C)(=O)=O)cc1)n2C

>  <OBSERVED RESULT>
> 50 µM

$$$$
>  <SMILES REPRESENTATION>
Cc1nc(-c2ccc(C3CCN(C4CCOCC4)CC3)cc2)cc2c1nc(-c1ccc(S(C)(=O)=O)cc1)n2C

>  <OBSERVED RESULT>
> 25 µM

$$$$

Record request: IC50 value, item Cc1nc(-c2ccc(N3CC4(C3)CN(C3COC3)C4)cc2)cc2c1nc(-c1ccc(S(C)(=O)=O)cc1)n2C
> 50 µM

Can you share its IC50? I mean this compound: Cn1c(-c2ccc(S(C)(=O)=O)cc2)nc2cnc(-c3ccc(N4CCC5(CC4)CN(C4COC4)C5)cc3)cc21
> 25 µM

// returns reported IC50 for input COc1ccc(-c2nc3c(C)nc(-c4ccc(N5CC6(C5)CN(C5COC5)C6)cc4)cc3n2C)cc1OC
> 50 µM

* * *

biological target: human TLR9 (Homo sapiens, UniProt Q9NR96); experiment: TLR7/8/9 Inhibition Reporter Assays (TLR9); conditions: HEK-Blue cells overexpressing human TLR9, SEAP reporter, stimulated with TLR9 ligand ODN2006
pIC50: −log10 of the molar value.
OBSERVABLE: pIC50

P: Cc1ccccc1C(=O)N1CCC(NCc2ccc(-c3cc4c(nc(-c5ccc(S(C)(=O)=O)cc5)n4C)c(C)n3)cc2)CC1
Q: COc1cc(-c2nc3c(C)nc(-c4ccc(N5CCN(CC6CC6)CC5)cc4)cc3n2C)cn2ncnc12
R: Cc1nc(-c2ccc(N3CCC4(CC3)CN(CC(C)C)C4)cc2)cc2c1nc(-c1ccc(S(C)(=O)=O)cc1)n2C
S: Cc1nc(-c2ccc(N3CCC4(CC3)CN(C3CCC3)C4)cc2)cc2c1nc(-c1ccc(S(C)(=O)=O)cc1)n2C
Arrange these 4 compounds in increasing order of pIC50. // list labels; follow requested order
P, Q, R, S

P: COc1ccc(-c2nc3c(C)nc(-c4ccc(N5CC6(C5)CN(C(C)C)C6)cc4)cc3n2C)cc1OC
Q: CC(C)N1CC2(CCN(c3ccc(-c4cc5c(cn4)nc(-c4ccc(S(C)(=O)=O)cc4)n5C)cc3)CC2)C1
I would appreciate it if you could say which entry, P or Q , has the lower pIC50 value. Pick one and reply with its label.
Q
(Q: 6.46, P: 7.64)

P: COCCN1CC2(C1)CN(c1ccc(-c3cc4c(nc(-c5ccc(OC)c(OC)c5)n4C)c(C)n3)cc1)C2
Q: CC(C)N1CCC(N2CC=C(c3cc4c(nc(-c5ccc(S(C)(=O)=O)cc5)n4C)c(C(F)(F)F)n3)CC2)CC1
Decide: P or Q , by lowest recorded pIC50. Answer with the label corresponding to your selection.
Q
